Where do the numbers come from? From patent EP2380575B1.

# Run description: clinical
# Run conditions: both, human, plasma, po, 900 mg
Attribute measured: half-life (min)
Note: unit min is implicit; provide only the numeric part.

Please give measured half-life of the following entry: NC(=O)N1c2ccccc2C[C@H](O)c2ccccc21 [eslicarbazepine]
547

---

# Run description: Trial B: pharmacokinetics following single and repeated doses in healthy young male subjects
# Type: in vivo, humans
# Run conditions: 400 mg once-daily doses of eslicarbazepine acetate
Attribute measured: mean AUC0-24h (µg·h/mL)
Unit µg·h/mL implied. Number only.

Given the molecule NC(=O)N1c2ccccc2C[C@H](O)c2ccccc21 [eslicarbazepine] , write its reported mean AUC0-24h.
126
